Cited source: paper PMC9838217

- Tested Target: SALL4 ZFC4 WT (HT-SELEX) (Mus musculus, UniProt Q8BX22 870-940)
- Sequence: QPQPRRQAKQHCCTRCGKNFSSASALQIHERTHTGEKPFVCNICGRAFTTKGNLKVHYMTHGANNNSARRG
- Method Notes: HT-SELEX; high values mean tight binding
- Conditions: protein: recombinant; vector His6-GST; dsDNA, one strand shown
Measurement Type: binding signal (fold-change vs cycle 0)

* ACGACT | 0.624
* ATTGGG | 0.725
* ATCGGA | 0.708
* ACATTA | 2.1
* ATATAT | 5.74
* CCAACG | 0.347
* GCGTTA | 0.54
* GAGGTA | 0.857
* ACAATG | 1.23
* GTTGAA | 1.18
* GCATCC | 0.382
* GCCTAC | 0.304
* ACTTTC | 1.28
* TATTAA | 5.02
* AAGTGC | 0.551
* GCTATA | 1.13
* ACTCAC | 0.877
* AACTGT | 1.31
* AAAGCG | 0.393
* AAAACC | 0.956
* ACACAT | 1.25
* AGAGCT | 0.658
* AAGGCT | 0.61
* CTGGTA | 0.802
* CATCAG | 0.861
* AACCGT | 0.674
* AATCAT | 2.57
* ATTGCG | 0.438
* AGCAAC | 0.642
* CAATCC | 0.816
* CTCCAC | 0.493
* AACATT | 1.95
* ACGGTC | 0.362
* ACGGTA | 0.715

---

- Tested Target: SALL4 ZFC4 WT (HT-SELEX) (Mus musculus, UniProt Q8BX22 870-940)
- Sequence: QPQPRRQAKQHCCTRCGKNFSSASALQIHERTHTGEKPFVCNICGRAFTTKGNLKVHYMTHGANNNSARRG
- Method Notes: HT-SELEX; high values mean tight binding
- Conditions: protein: recombinant; vector His6-GST; dsDNA, one strand shown
Measurement Type: binding signal (fold-change vs cycle 0)

• GGATGA = 0.897
• CACCAC = 0.402
• AAACAC = 1.06
• GGACGA = 0.34
• CCAGGA = 0.465
• CCTCGA = 0.415
• AGCTCC = 0.365
• ATTAAG = 2.1
• CAAATC = 1.1
• TCCTCA = 0.899
• GATTAA = 2.07
• AAACAG = 1.1
• GGATAA = 1.38
• TCGCAA = 0.451
• CTATGC = 0.624
• AGTAAC = 1.46
• TAATTA = 4.1
• ATTACG = 1.22
• AAGAGG = 0.855
• GACGTA = 0.666
• AGATAT = 2.61
• GACTCC = 0.5
• CTAGCC = 0.314
• ACTCCC = 0.553
• ATAAAC = 2.24
• GTATAC = 1.25
• GTCTAA = 1.16
• CAAACA = 1.04
• AACCGG = 0.336
• CCATTA = 1.33
• AGGATA = 1.55
• ACCCGA = 0.382
• AAGCAC = 0.582
• AGATTA = 2.21
• TCATAA = 3.28
• ACAAAC = 1.07
• CTCCTC = 0.611
• AAGCCA = 0.541
• AACTCT = 1.39
• AATTGC = 0.939
• GTCACA = 0.677
• CAGTGA = 0.806
• GGAAGA = 0.939
• GAGGGA = 0.53
• GCCTAA = 0.547
• CGATAA = 1.17
• ACTCTC = 0.904
• ACACCA = 0.735
• AGATCT = 1.31
• ATAAGG = 1.55
• CCGATC = 0.399
• GTGAAA = 1.16
• GCGATA = 0.515
• CTGCAG = 0.318
• CTGCAA = 0.58
• CCTTAG = 0.925
• AGATAG = 1.35
• AGTCGA = 0.617
• GTAACA = 1.36
